All figures here come from paper PMC8426393.

# TARGET SYSTEM: ABCC2/MRP2 (Homo sapiens)
# Construct: made in house; host or cells: Sf9 insect cells (baculovirus)
# Sequence (Q92887 whole entry): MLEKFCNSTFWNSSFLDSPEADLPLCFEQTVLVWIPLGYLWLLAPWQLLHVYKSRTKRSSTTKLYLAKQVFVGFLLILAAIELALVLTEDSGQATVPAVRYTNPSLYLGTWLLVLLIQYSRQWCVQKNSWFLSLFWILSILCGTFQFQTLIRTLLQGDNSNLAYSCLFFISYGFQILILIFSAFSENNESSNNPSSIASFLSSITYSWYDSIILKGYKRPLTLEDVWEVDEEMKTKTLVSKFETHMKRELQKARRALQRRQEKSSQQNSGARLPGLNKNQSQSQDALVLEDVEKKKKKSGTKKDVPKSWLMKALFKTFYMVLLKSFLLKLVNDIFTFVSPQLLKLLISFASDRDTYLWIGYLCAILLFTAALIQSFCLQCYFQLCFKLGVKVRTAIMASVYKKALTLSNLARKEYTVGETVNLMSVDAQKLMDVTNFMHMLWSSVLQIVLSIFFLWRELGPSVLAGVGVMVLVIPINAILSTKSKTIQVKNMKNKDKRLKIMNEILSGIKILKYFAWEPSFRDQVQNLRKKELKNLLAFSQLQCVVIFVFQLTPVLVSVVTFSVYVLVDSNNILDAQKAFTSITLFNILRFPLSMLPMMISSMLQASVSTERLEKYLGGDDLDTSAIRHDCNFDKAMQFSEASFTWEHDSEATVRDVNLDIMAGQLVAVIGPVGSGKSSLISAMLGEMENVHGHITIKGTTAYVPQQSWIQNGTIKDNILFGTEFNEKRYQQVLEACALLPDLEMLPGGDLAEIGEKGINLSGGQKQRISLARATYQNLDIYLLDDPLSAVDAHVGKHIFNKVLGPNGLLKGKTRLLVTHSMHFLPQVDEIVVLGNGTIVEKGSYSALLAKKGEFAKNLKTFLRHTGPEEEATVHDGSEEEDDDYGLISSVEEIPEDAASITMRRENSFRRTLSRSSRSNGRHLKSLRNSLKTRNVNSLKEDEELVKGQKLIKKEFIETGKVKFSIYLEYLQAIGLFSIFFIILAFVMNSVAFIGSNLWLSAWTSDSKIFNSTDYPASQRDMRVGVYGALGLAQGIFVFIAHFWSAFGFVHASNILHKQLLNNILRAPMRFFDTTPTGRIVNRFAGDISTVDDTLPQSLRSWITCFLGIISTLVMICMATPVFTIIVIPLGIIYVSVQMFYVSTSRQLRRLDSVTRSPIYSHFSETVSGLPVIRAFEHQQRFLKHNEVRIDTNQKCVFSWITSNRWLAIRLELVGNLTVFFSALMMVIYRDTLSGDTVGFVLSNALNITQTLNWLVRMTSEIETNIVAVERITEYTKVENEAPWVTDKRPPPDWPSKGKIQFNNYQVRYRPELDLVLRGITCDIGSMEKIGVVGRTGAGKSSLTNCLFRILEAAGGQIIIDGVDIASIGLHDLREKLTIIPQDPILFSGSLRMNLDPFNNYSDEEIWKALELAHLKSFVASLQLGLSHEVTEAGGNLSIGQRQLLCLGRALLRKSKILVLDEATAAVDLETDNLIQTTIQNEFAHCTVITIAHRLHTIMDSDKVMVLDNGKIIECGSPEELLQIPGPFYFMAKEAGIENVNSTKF
# MEASUREMENT PROTOCOL: MRP2 vesicular transport: ATP-dependent CDCF uptake into inverted Sf9 membrane vesicles
# Type: biochemical
# CONDITION LABEL: approximate IC50; CDCF 5 µM, 37 °C, 10 min
pIC50: −log10 of the molar value.
RECORDED ENDPOINT: pIC50

Enquiry: Dear colleague, I am looking for the recorded pIC50 of the following compound: CCC(C)C1OC2(CCC1C)CC1CC(CC=C(C)C(OC3CC(OC)C(OC4CC(OC)C(O)C(C)O4)C(C)O3)C(C)C=CC=C3COC4C(O)C(C)=CC(C(=O)O1)C34O)O2 (stereo not shown) [IVE, ivermectin]
Return: ≤ 4.70

---

# TARGET SYSTEM: ABCB11/BSEP (Homo sapiens, UniProt O95342)
# Construct: purchased Solvo Biotechnology (Budapest, Hungary); host or cells: HEK-293 cells
# Sequence (O95342 whole entry): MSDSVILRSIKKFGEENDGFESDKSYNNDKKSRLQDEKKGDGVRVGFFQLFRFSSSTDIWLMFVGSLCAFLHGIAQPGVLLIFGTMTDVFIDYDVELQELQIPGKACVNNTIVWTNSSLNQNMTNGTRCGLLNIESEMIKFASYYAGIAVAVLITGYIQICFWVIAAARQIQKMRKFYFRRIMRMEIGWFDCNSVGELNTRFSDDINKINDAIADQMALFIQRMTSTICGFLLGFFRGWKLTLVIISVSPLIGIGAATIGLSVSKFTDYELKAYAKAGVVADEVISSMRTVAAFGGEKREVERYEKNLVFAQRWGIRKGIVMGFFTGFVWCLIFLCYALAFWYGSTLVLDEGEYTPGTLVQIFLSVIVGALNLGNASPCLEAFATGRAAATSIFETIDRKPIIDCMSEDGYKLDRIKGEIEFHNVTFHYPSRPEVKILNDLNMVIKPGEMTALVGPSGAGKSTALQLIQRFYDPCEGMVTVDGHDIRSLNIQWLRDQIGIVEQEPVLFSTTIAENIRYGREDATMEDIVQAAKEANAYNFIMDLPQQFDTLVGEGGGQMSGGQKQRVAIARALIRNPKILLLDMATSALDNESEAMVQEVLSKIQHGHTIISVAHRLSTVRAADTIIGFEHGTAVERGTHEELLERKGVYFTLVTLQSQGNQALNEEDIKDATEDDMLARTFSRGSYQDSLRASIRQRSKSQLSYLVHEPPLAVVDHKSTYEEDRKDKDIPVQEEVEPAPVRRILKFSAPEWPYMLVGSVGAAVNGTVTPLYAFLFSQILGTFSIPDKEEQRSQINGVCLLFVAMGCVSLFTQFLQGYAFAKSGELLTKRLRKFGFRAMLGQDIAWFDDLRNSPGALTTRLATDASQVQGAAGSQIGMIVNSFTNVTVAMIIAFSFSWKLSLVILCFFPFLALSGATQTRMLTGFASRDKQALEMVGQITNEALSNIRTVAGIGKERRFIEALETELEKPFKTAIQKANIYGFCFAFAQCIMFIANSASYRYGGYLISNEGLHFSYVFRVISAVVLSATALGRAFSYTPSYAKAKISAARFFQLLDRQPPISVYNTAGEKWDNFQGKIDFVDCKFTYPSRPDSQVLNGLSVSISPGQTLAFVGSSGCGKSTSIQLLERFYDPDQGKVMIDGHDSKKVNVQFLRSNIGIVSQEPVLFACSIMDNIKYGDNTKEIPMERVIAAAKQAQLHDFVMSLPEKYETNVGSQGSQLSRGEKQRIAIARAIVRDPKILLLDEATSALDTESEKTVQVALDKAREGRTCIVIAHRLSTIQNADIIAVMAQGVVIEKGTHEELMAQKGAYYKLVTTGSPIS
# MEASUREMENT PROTOCOL: BSEP vesicular transport: ATP- and glyburide-sensitive taurocholate uptake into inverted HEK-293 membrane vesicles
# Type: biochemical
RECORDED ENDPOINT: IC50 (µM)
Please reply with the bare figure in µM and do not write the unit itself.

Enquiry: Dear colleague, I am looking for the recorded IC50 of the following molecule: Cc1cccc(C)c1OCC(=O)N[C@@H](Cc1ccccc1)[C@@H](O)C[C@H](Cc1ccccc1)NC(=O)[C@H](C(C)C)N1CCCNC1=O
Return: 7.8
